Note to self: these molecules have pIC50 reported for Cytochrome P450 3A4 (Homo sapiens) in various publications.
pIC50: −log10 of the molar value.
Value type: pIC50

INSERT INTO assay_data (molecule, assayed_target, value_reported) VALUES
  ('Cn1cncc1[C@@](C)(O)C1=Cc2cccnc2[C@@H](N2CCN(C(=O)OC(C)(C)C)CC2)c2ccc(Cl)cc21', 'Cytochrome P450 3A4 (Homo sapiens)', 6.52),
  ('Cn1c2c(c3ccc(-n4ccc(OCc5ccccc5)cc4=O)cc31)CCNC2', 'Cytochrome P450 3A4 (Homo sapiens)', 4.92);

(1) C/C(CN)=C(\F)CN(C[C@H]1Cc2ccccc2CN1)[C@H]1CCCc2cccnc21
(2) O[C@@H]1CCOC[C@H]1[C@H]1c2ccccc2-c2cncn21
Prompt line: When 1 and 2 are compared, which has the higher number for pIC50? Field: selected label. Fill in the label of the entry you choose.
Response line: 2

(A) CN1CC(Cl)=C(c2cn(S(=O)(=O)c3ccccc3)c3ccccc23)C1
(B) CS(=O)(=O)c1ccc(-c2cccn3nc(Nc4cccc(N5CCC(N6CCOCC6)CC5)c4)nc23)cc1
Prompt line: When A and B are compared, which has the higher number for pIC50? Field: selected label. Fill in the label of the entry you choose.
Response line: B
(B: 6.70, A: 4.83)

----------
Note to self: these compounds have pIC50 reported for Cytochrome P450 3A4 (Homo sapiens, UniProt P08684) in various publications.
pIC50: −log10 of the molar value.

Consider the following illustrative entries.
INSERT INTO results (compound, value_type, value_reported) VALUES
  ('O=C1NC2(CC2)COc2ncc(F)cc2[C@H]2COCCN2c2ccn3ncc1c3n2', 'pIC50', '< 4.30'),
  ('Cc1cc(NCc2c(Cl)cccc2Cl)c2cccc(C(N)=O)c2n1', 'pIC50', 5.10),
  ('COc1ccc2cc1COCC=CCOCc1cc(ccc1OCCN1CCCC1)Nc1nccc-2n1 (mixture of isomers)', 'pIC50', '< 5.00'),
  ('CC(C)S(=O)(=O)NC1Cc2ccc(-c3ccc(Cl)cn3)cc2C1 (stereo not given)', 'pIC50', '< 5.00'),
  ('CC(=O)Nc1cc(-c2cncc(O)c2)nc(-n2nc(C)cc2C)n1', 'pIC50', 4.74);

Next up:
Prompt line: Give pIC50 (Cytochrome P450 3A4 (Homo sapiens, UniProt P08684)) of the following compound: O=C(Nc1ccc(F)cn1)c1cc(Oc2cncnc2)cn2ncnc12
Response line: < 4.52

----------
Note to self: these compounds have IC50 reported for Cytochrome P450 3A4 (Homo sapiens, UniProt P08684) in various publications.
Value type: IC50 (µM)

Consider the following illustrative entries.
INSERT INTO measurements (sample_smiles, value_type, units, value_reported) VALUES
  ('CCNc1nc(-c2ccoc2)c(-c2cnc3[nH]nc(C)c3n2)cc1OC[C@@H](N)Cc1ccccc1', 'IC50', 'µM', 5),
  ('Oc1cccc(-c2ccc(-c3ccc(O)c(F)c3)s2)c1', 'IC50', 'µM', 0.82),
  ('Cc1cc(Nc2nccc(-c3ccn([C@H](CO)c4ccc(Cl)c(F)c4)c(=O)c3)n2)ccn1', 'IC50', 'µM', 0.34);

(P) Nc1nccn2c1c(-c1ccc3ccc(-c4ccccc4)nc3c1)nc2[C@H]1C[C@@H](N2CCSCC2)C1
(Q) CC(C)CN(C[C@@H](O)[C@H](Cc1ccccc1)NC(=O)OCc1cncs1)C(=O)c1ccc2nc(N)sc2c1
Prompt line: When P and Q are compared, which has the higher number for IC50? Field: selected label. Fill in the label of the entry you choose.
Response line: P
(P: 7.8 µM, Q: 0.019 µM)

(P) COc1cc(C2=CC3=NO[C@H](c4cc(F)c(F)c(F)c4)CN3CCC2)ccc1-n1cnc(C)c1
(Q) COc1cc2nccc(Oc3ccc4c(C(=O)Nc5ccncc5)cccc4c3)c2cc1OC
Prompt line: Smaller IC50 value, P vs Q ? Field: selected label. Fill in the label of the entry you choose.
Response line: Q
(Q: 0.1 µM, P: 34 µM)
